System: NHBE cells
Method Summary: Biolog metabolic array: substrate use by NHBE cells with or without CA09 infection
Format: cell-based, human
Measurement Conditions: Virus: CA09-infected NHBE cells, MOI 1; Biolog PMM2; 9 hr
List of 590 nm absorbance normalized to zero hour (substrate use), 9 hr values.
Readout Label: 590 nm absorbance normalized to zero hour (substrate use), 9 hr

Compound	Experimental Result
OC[C@@H](O)[C@@H](O)CO	0.49
C[C@@H](O)CC(=O)O [b-Hydroxy-Butyric Acid]	3.79
CO[C@H]1O[C@H](CO)[C@H](O)[C@H](O)[C@H]1O [a-Methyl-D-Galactoside]	1.83

====

System: NHBE cells
Method Summary: Biolog metabolic array: substrate use by NHBE cells with or without CA09 infection
Assay type: cell-based, human
Measurement Conditions: Virus (CA09-infected NHBE cells, MOI 1); 9 hr
Output T for records whose 590 nm absorbance normalized to zero hour (substrate use), 9 hr is lower than 0.5, F for records at or above 0.5.

Compound	Assigned Class
O=C(O)C[C@@H](O)C(=O)O	F
O=C(O)CC(CC(=O)O)C(=O)O	T
C[C@@H]1OC(O)[C@@H](O)[C@H](O)[C@@H]1O (stereo partly shown)	F
OC[C@@H](O)[C@@H](O[C@H]1O[C@H](CO)[C@@H](O)[C@H](O)[C@H]1O)[C@H](O)[C@@H](O)CO	F
CC(O)C(C)O (stereo not shown)	T
O=C(O)C(O)C(O)C(=O)O (stereo not shown)	F
OC[C@H]1O[C@@H](O[C@H]2[C@H](O)[C@@H](O)[C@@H](O)O[C@@H]2CO)[C@H](O)[C@@H](O)[C@H]1O	T
CO[C@H]1O[C@H](CO)[C@@H](O)[C@H](O)[C@@H]1O [a-Methyl-D-Mannoside]	F
O=C(O)CCC(=O)C(=O)O	F
C[C@H](O)[C@H](O)[C@@H](O)[C@@H](O)C=O	T
O=C(CO)[C@@H](O)[C@H](O)[C@@H](O)CO	T
O[C@H]1[C@H](O)[C@@H](O)[C@H](O)[C@@H](O)[C@H]1O	F
CCCCCC(=O)O	T
O=C(CO)[C@@H](O)[C@H](O)[C@H](O)CO	F
Nc1ncnc2c1ncn2[C@@H]1O[C@H](CO)[C@@H](O)[C@H]1O	F
OC[C@H]1O[C@@H](OC[C@H]2OC(O)[C@H](O)[C@@H](O)[C@@H]2O)[C@H](O)[C@@H](O)[C@@H]1O (stereo partly shown)	F
O=C(O)CCCO [g-Hydroxy-Butyric Acid]	F
CCC(=O)C(=O)O	T
OC[C@H]1O[C@H](OC[C@H]2OC(O)(CO)[C@@H](O)[C@@H]2O)[C@H](O)[C@@H](O)[C@@H]1O (stereo partly shown)	T

====

System: NHBE cells
Method Summary: Biolog metabolic array: substrate use by NHBE cells with or without CA09 infection
Format: cell-based, human
Measurement Conditions: Virus (CA09-infected, MOI 1) NHBE cells, 11 hr
Entry class follows 590 nm absorbance normalized to zero hour (substrate use), 11 hr: range 1 = under 2, range 2 = from 2 up to 4, range 3 = 4 and over

Molecule	Assigned Class
O=C[C@@H](O)[C@H](O)[C@H](O)CO	range 1
OC[C@@H](O)[C@@H](O)[C@H](O)[C@@H](O)CO	range 3
CC(=O)N[C@@H]1C(O)O[C@H](CO)[C@@H](O)[C@@H]1O (stereo partly shown)	range 2
OC[C@H]1O[C@H](O[C@H]2[C@H](O)[C@@H](O)[C@H](O)O[C@@H]2CO)[C@H](O)[C@@H](O)[C@@H]1O	range 3
NC(=O)CCC(=O)O	range 2
O=P(O)(O)O[C@H]1O[C@H](CO)[C@@H](O)[C@H](O)[C@H]1O [D-Glucose-1-Phosphate]	range 3
OC[C@@H](O)[C@@H](O[C@@H]1O[C@H](CO)[C@H](O)[C@H](O)[C@H]1O)[C@H](O)[C@@H](O)CO	range 3
OC[C@H]1O[C@H](OC[C@H]2O[C@H](O[C@]3(CO)O[C@H](CO)[C@@H](O)[C@@H]3O)[C@H](O)[C@@H](O)[C@@H]2O)[C@H](O)[C@@H](O)[C@H]1O	range 1
CO[C@H]1O[C@H](CO)[C@@H](O)[C@H](O)[C@H]1O [a-Methyl-D-Glucoside]	range 2
CO[C@@H]1O[C@H](CO)[C@@H](O)[C@H](O)[C@H]1O [b-Methyl-D-Glucoside]	range 3
COC(=O)CCC(=O)O [Mono Methyl Succinate]	range 2
CCC(=O)O	range 1
COC(=O)[C@@H](C)O [Methyl D-Lactate]	range 2
N[C@@H](C(=O)O)[C@@H](O)[C@H](O)[C@H](O)CO	range 2
OCC1OC(OC2C(CO)OC(OC3C(CO)OC(O)C(O)C3O)C(O)C2O)C(O)C(O)C1O (stereo not shown)	range 3
OC[C@@]12OC[C@@H](O1)[C@@H](O)[C@@H](O)[C@@H]2O	range 1
CC(=O)N[C@H]1[C@H]([C@H](O)[C@H](O)CO)OC(O)(C(=O)O)C[C@@H]1O (stereo partly shown)	range 2
O=C(CO)[C@@H](O)[C@H](O)[C@H](O)COP(=O)(O)O [D-Fructose-6-Phosphate]	range 1
O=C(O)CC(O)(CC(=O)O)C(=O)O	range 2
COC(=O)C(C)=O [Methyl Pyruvate]	range 2
